Item-by-item account of Activity
System: Lindernia procumbens
method-summary: Herbicidal activity against Lindernia procumbens assessed as killing at 1 g/ha by pot test
Assay type: functional
Give the number; % is assumed, so skip it.

These recorded examples may help you get a feel for the data.
INSERT INTO assay_data (structure_smiles_string, tested_system, value_measured) VALUES
  ('COc1cc(OC)nc(NC(=O)NS(=O)(=O)c2c(C)nn3cccnc23)n1', 'Lindernia procumbens', 88),
  ('COc1cc(OC)nc(NC(=O)NS(=O)(=O)c2c(C)nc3cccnn23)n1', 'Lindernia procumbens', 88),
  ('COc1cc(OC)nc(NC(=O)NS(=O)(=O)c2nc(C)n3ccccc23)n1', 'Lindernia procumbens', 1),
  ('COc1cc(OC)nc(NC(=O)NS(=O)(=O)c2c(C)cc3ccccn23)n1', 'Lindernia procumbens', 1);

Let's switch to this compound now.
Recorded Activity for `COc1cc(OC)nc(NC(=O)NS(=O)(=O)c2ncc3ccccn23)n1` on Lindernia procumbens was 1

Sourced from ChEMBL document CHEMBL3046317
